# assayedSystem: human serum albumin (HSA) (Homo sapiens, UniProt P02768)
# Construct: I (residues 1–195), II (196–383), and III (384–585); purchased Sigma
# Sequence (P02768 25-609): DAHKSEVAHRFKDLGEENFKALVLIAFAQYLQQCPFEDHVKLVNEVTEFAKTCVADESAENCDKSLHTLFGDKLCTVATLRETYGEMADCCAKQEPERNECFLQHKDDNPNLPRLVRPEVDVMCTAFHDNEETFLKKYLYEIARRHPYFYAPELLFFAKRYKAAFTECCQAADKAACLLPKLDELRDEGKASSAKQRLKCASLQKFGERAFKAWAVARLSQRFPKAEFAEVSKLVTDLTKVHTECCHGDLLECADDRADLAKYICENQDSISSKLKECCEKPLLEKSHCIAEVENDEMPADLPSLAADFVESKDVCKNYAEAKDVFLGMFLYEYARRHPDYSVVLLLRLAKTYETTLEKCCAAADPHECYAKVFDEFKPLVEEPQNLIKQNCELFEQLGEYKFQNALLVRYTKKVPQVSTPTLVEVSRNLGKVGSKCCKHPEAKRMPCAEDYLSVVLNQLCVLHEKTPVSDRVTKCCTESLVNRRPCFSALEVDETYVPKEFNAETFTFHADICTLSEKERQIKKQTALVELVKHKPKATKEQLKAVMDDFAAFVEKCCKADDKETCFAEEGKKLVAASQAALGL
# protocolSummary: Far-UV circular dichroism of HSA, α-helix content
# Assay type: binding
# Set-up: unit of the concentration uncertain
# assayContext: compound concentration 20 (unit uncertain); HSA 20 µM; free HSA 67.03
propertyLabel: % α-helix of HSA (%)
Give bare numbers, in %.

Use these answered entries as a reference point.
| compound | % α-helix of HSA [%] |
| --- | --- |
| [Ag+].[O-][Cl+3]([O-])([O-])[O-].c1ccc2c(c1)[nH]c1cnccc12.c1ccc2c(c1)[nH]c1cnccc12 [Compound 1, [Ag(Hnor)2](ClO4)] | 64.07 |
| F[B-](F)(F)F.[Ag+].c1ccc2c(c1)[nH]c1cnccc12.c1ccc2c(c1)[nH]c1cnccc12 [Compound 4, [Ag(Hnor)2](BF4)] | 65.25 |
| O=[N+]([O-])[O-].[Ag+].c1ccc2c(c1)[nH]c1cnccc12.c1ccc2c(c1)[nH]c1cnccc12 [Compound 2, [Ag(Hnor)2](NO3)] | 62.85 |

Inquiry: What value of % α-helix of HSA has been recorded for this entry: CC#N.F[P-](F)(F)(F)(F)F.[Ag+].c1ccc2c(c1)[nH]c1cnccc12.c1ccc2c(c1)[nH]c1cnccc12 [Compound 3, [Ag(Hnor)2(MeCN)](PF6)]
Reply text: 63.57

* * *

# assayedSystem: human serum albumin (HSA) (Homo sapiens, UniProt P02768)
# Construct: I (residues 1–195), II (196–383), and III (384–585); purchased Sigma
# protocolSummary: UV absorption spectra of HSA with Ag(I) compounds
# Assay type: binding
# assayContext: HSA 5 µM, with hyperchromism
propertyLabel: redshift (bathochromic effect) of HSA UV absorbance (nm)
Numbers only, in nm.

| molecule | unitAbbrev | recordedMeasurement |
| --- | --- | --- |
| CC#N.F[P-](F)(F)(F)(F)F.[Ag+].c1ccc2c(c1)[nH]c1cnccc12.c1ccc2c(c1)[nH]c1cnccc12 [Compound 3, [Ag(Hnor)2(MeCN)](PF6)] | nm | 5 |

Value sought for every listed molecule: redshift (bathochromic effect) of HSA UV absorbance.
1. O=[N+]([O-])[O-].[Ag+].c1ccc2c(c1)[nH]c1cnccc12.c1ccc2c(c1)[nH]c1cnccc12 [Compound 2, [Ag(Hnor)2](NO3)]
2. [Ag+].[O-][Cl+3]([O-])([O-])[O-].c1ccc2c(c1)[nH]c1cnccc12.c1ccc2c(c1)[nH]c1cnccc12 [Compound 1, [Ag(Hnor)2](ClO4)]

Reply text:
1: 5; 2: 7

Inquiry: Given the entry F[B-](F)(F)F.[Ag+].c1ccc2c(c1)[nH]c1cnccc12.c1ccc2c(c1)[nH]c1cnccc12 [Compound 4, [Ag(Hnor)2](BF4)] , what redshift (bathochromic effect) of HSA UV absorbance was observed with human serum albumin (HSA) (Homo sapiens, UniProt P02768)?
Reply text: 6

* * *

# assayedSystem: human serum albumin (HSA) (Homo sapiens, UniProt P02768)
# Construct: I (residues 1–195), II (196–383), and III (384–585); purchased Sigma
# protocolSummary: Fluorescence quenching of HSA with addition of extra anions (KClO4, KNO3)
# Type: binding
# assayContext: Set A: +extra ClO4− (KClO4, 1:4 ratio); HSA 5 µM
What n, number of binding sites was measured for each of the following?

Use these answered entries as a reference point.
| molecule | n, number of binding sites |
| --- | --- |
| O=[N+]([O-])[O-].[Ag+].c1ccc2c(c1)[nH]c1cnccc12.c1ccc2c(c1)[nH]c1cnccc12 [Compound 2, [Ag(Hnor)2](NO3)] | 1.58 |
| [Ag+].[O-][Cl+3]([O-])([O-])[O-].c1ccc2c(c1)[nH]c1cnccc12.c1ccc2c(c1)[nH]c1cnccc12 [Compound 1, [Ag(Hnor)2](ClO4)] | 1.77 |
| CC#N.F[P-](F)(F)(F)(F)F.[Ag+].c1ccc2c(c1)[nH]c1cnccc12.c1ccc2c(c1)[nH]c1cnccc12 [Compound 3, [Ag(Hnor)2(MeCN)](PF6)] | 1.55 |

# ---- query molecule ----
Inquiry: What value of n, number of binding sites has been recorded for this entry: F[B-](F)(F)F.[Ag+].c1ccc2c(c1)[nH]c1cnccc12.c1ccc2c(c1)[nH]c1cnccc12 [Compound 4, [Ag(Hnor)2](BF4)]
Reply text: 1.69
